Exercise: for every item that follows, state its recorded Emax.
# System: ALP in NHAC (normal human articular chondrocytes)
# MEASUREMENT DESCRIPTION: Alkaline Phosphatase (ALP) activity assay: ALP staining and quantitation in NHACs (prevention of chondrocyte hypertrophy)
# Format: cell-based
# MEASUREMENT CONDITIONS: Chondrocyte, 288 h, human IL-1 beta 10 ng/mL, 12 days, read-out: ALP in NHAC (% Efficacy)
One number for each entry, in %.

{"columns": ["MOLECULE", "UNIT ABBREVIATION", "Emax"],
 "data": [
  ["COc1cc([C@@]23C[C@]2(C(=O)Nc2cc(C(F)(F)F)ccn2)[C@H]2C[C@H](O)[C@@H]3O2)ccn1 (racemic) [Example 20]", "%", 24],
  ["Cn1cc([C@@]23C[C@]2(C(=O)Nc2cccc(C(F)(F)F)c2F)[C@H]2C[C@H](O)[C@@H]3O2)c(C(F)(F)F)n1 (racemic) [Example 54]", "%", 7],
  ["COc1cc([C@@]23C[C@]2(C(=O)Nc2cccc(C(F)(F)F)c2F)[C@H]2C[C@H](O)[C@@H]3O2)ccn1 (racemic) [Example 31]", "%", 15],
  ["O=C(Nc1cc(C(F)(F)F)c(Cl)cn1)[C@]12C[C@@]1(c1ccnc(F)c1)[C@H]1O[C@@H]2C[C@@H]1O (racemic) [Example 5]", "%", 38],
  ["Cn1cc([C@@]23C[C@]2(C(=O)Nc2ccc(F)c(C(F)(F)F)c2)[C@H]2C[C@H](O)[C@@H]3O2)c(C(F)(F)F)n1 (racemic) [Example 55]", "%", 14]
]}

Provide Emax values for the following items, in order.
1. CCOc1ccc(NC(=O)[C@]23C[C@@]2(c2cn(C)nc2C(F)(F)F)[C@H]2O[C@@H]3C[C@@H]2O)cc1C(F)(F)F (racemic) [Example 65]
2. Cc1cc(NC(=O)[C@]23C[C@@]2(c2ccnc(F)c2)[C@H]2O[C@@H]3C[C@@H]2O)cc(C(F)(F)F)c1 (racemic) [Example 12]
3. COc1cc([C@@]23C[C@]2(C(=O)Nc2cc(C(F)(F)F)cc(Cl)n2)[C@H]2C[C@H](O)[C@@H]3O2)ccn1 (racemic) [Example 21]
4. COc1cc([C@@]23C[C@]2(C(=O)Nc2cc(Cl)cc(C(F)(F)F)c2)[C@H]2C[C@H](O)[C@@H]3O2)ccn1 (racemic) [Example 71]
5. COc1cc([C@@]23C[C@]2(C(=O)Nc2ccc(C(F)(F)F)c(Cl)c2)[C@H]2C[C@H](O)[C@@H]3O2)ccn1 (racemic) [Example 74]
6. Cn1cc([C@@]23C[C@]2(C(=O)Nc2cc(C(F)(F)F)ccc2C#N)[C@H]2C[C@H](O)[C@@H]3O2)c(C(F)(F)F)n1 (racemic) [Example 69]
7. Cc1ccc(NC(=O)[C@]23C[C@@]2(c2ccnc(F)c2)[C@H]2O[C@@H]3C[C@@H]2O)cc1C(F)(F)F (racemic) [Example 11]

1: 84; 2: 21; 3: 0; 4: 9; 5: 77; 6: 88; 7: 0

###

Exercise: for every item that follows, state its recorded Emax.
# System: ALP in NHAC (normal human articular chondrocytes)
# MEASUREMENT DESCRIPTION: Alkaline Phosphatase (ALP) activity assay: ALP staining and quantitation in NHACs (prevention of chondrocyte hypertrophy)
# Format: cell-based
# MEASUREMENT CONDITIONS: Chondrocyte, 288 h, human IL-1 beta 10 ng/mL, 12 days, read-out: ALP in NHAC (% Efficacy)
# Experimental: The compounds of the present invention were evaluated in the Alkaline Phosphatase (ALP) activity assay to determine the ability of the compounds to prevent chondrocyte hypertrophy in normal human articular chondrocytes (NHACs). […] The staining was imaged by fluoresecent microscopy, using the 561 nm wavelength, and/or quantified by high content imaging with the ImageXpress Confocal (Molecular Devices, Sunnyvale, CA). […]
One number for each entry, in %.

The cases that follow already have their Emax on record.
{"columns": ["MOLECULE", "Emax (%)"],
 "data": [
  ["COc1cc([C@@]23C[C@]2(C(=O)Nc2cc(C(F)(F)F)ccc2C#N)[C@H]2C[C@H](O)[C@@H]3O2)ccn1 (racemic)", 92],
  ["O=C(Nc1cc(C(F)(F)F)ccc1F)[C@]12C[C@@]1(c1cccc(C(F)(F)F)c1)[C@H]1O[C@@H]2C[C@@H]1O (racemic)", 47],
  ["COc1cc([C@@]23C[C@]2(C(=O)Nc2cc(C(F)(F)F)ccc2F)[C@H]2C[C@H](O)[C@@H]3O2)ccn1 (racemic)", 12]
]}

Now consider a different molecule.
The recorded Emax for entry Cn1cc([C@@]23C[C@]2(C(=O)Nc2ccc(C(F)(F)F)c(Cl)c2)[C@H]2C[C@H](O)[C@@H]3O2)c(C(F)(F)F)n1 (racemic) equals 91
